Kindly state MIC for each of the entries shown.
API: value field is a number in mg/L; no unit string.

Record CCOC(=O)c1c(Cl)cc(C)cc1N(C)C ; system Tilletia foetida; MIC = 25

Field MIC (system: Tilletia foetida) for entry CCOC(=O)c1c(N(CC)CC)cc(C)c(SC#N)c1Cl = 10

Observed MIC, Tilletia foetida, CCOC(=O)c1c(Cl)cc(C)cc1N(CC)CC : 25

# lookup: CCOC(=O)c1c(N(CC)CC)cc(C)c([N+](=O)[O-])c1Cl on Tilletia foetida, MIC = 25

MIC for Tilletia foetida with input CCOC(=O)c1c(Cl)c(Cl)c(C)c(Cl)c1N(C)C equals 5
